# test target: P. ae LpxC enzyme (Pseudomonas aeruginosa, UniProt P47205)
# Sequence (P47205 whole entry): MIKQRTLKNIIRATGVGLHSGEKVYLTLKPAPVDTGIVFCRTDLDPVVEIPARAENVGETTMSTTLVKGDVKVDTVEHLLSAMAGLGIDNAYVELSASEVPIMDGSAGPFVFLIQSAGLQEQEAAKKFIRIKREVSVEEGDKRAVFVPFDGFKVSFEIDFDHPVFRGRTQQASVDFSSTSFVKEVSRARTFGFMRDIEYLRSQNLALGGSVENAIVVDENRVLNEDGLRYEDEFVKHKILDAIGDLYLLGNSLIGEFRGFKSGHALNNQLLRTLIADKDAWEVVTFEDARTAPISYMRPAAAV
# assay details: Enzyme inhibition testing (fluorescamine assay)
# Format: biochemical
# stated conditions: @10 μg/ml; read-out: ENZYME (percent inhibition)

compound: CCCc1ccc(-c2ccc(C(=O)N3CC[C@@H](OC)[C@H]3C(=O)NO)cc2)cc1 [Compound 8]
sign qualifier: =
inhibition at 10 µg/mL [%]: 21
--
compound: CCCc1ccc(-c2ccc(C(=O)N3CCS[C@H]3C(=O)NO)cc2)cc1 [Compound 13]
sign qualifier: =
inhibition at 10 µg/mL [%]: 71
--
compound: COc1ccc(C(=O)N2CC[C@@H](O)[C@H]2C(=O)NO)cc1SC(F)(F)F [Compound 40]
sign qualifier: =
inhibition at 10 µg/mL [%]: 52
--
compound: CCCc1ccc(-c2ccc(C(=O)N3CC[C@H](OC)[C@H]3C(=O)NO)cc2)cc1 [Compound 7]
sign qualifier: =
inhibition at 10 µg/mL [%]: 84
--
compound: O=C(NO)c1cocc1C(=O)Nc1cccc(SC(F)(F)F)c1 [Compound 32]
sign qualifier: <
inhibition at 10 µg/mL [%]: 10

---

# Test system: H. influen.
# assay details: Susceptibility testing (MIC, CLSI microdilution)
# Type: cell-based, Haemophilus influenzae
# stated conditions: 20 h at 35° C., unit assumed
Item-by-item account of MIC H. influen.

compound: CCCc1ccc(-c2ccc(C(=O)N[C@@H](CCS(C)(=O)=O)C(=O)NO)cc2)cc1
MIC H. influen.: > 64 µg/mL

compound: CCCc1ccc(-c2ccc(C(=O)N3CCS(=O)(=O)[C@H]3C(=O)NO)cc2)cc1
MIC H. influen.: 32 µg/mL

compound: CCc1ccc(-c2ccc(C(=O)N3CC[C@@H](N)[C@H]3C(=O)NO)cc2)cc1
MIC H. influen.: > 64 µg/mL

compound: CCCc1ccc(-c2ccc(C(=O)N3CC[C@@H](O)[C@H]3C(=O)NO)cc2)cc1
MIC H. influen.: > 64 µg/mL

compound: CCCc1ccc(-c2ccc(C(=O)N3CC[C@H](OC)[C@H]3C(=O)NO)cc2)cc1
MIC H. influen.: > 64 µg/mL

compound: CCCc1ccc(-c2ccc(C(=O)NC(CSC)C(=O)NO)cc2)cc1 (stereo in doubt)
MIC H. influen.: > 64 µg/mL

compound: CCCc1ccc(-c2ccc(C(=O)N3CC[C@H](N)[C@H]3C(=O)NO)cc2)cc1
MIC H. influen.: 16 µg/mL

compound: CCCc1ccc(-c2ccc(C(=O)N3CC[C@H](N=[N+]=[N-])[C@H]3C(=O)NO)cc2)cc1
MIC H. influen.: > 64 µg/mL

compound: O=C(NO)[C@H]1N(C(=O)c2ccc(-c3ccc(C(F)(F)F)cc3)cc2)CCS1(=O)=O
MIC H. influen.: > 64 µg/mL

compound: O=C(NO)[C@H]1N(C(=O)c2ccc(-c3ccc(F)cc3)cc2)CCS1(=O)=O
MIC H. influen.: > 64 µg/mL
